tested on: HepDE19 cells; experiment: Cytotoxicity (CCK-8 cell viability) and selectivity index; format: cell-based, human; details: CC50 value/EC50 value
compounds and their reported Selectivity index (CC50/EC50)
Number, no unit, nothing else.

Answered cases to consult:
{"COMPOUND": "CCOC(=O)C1=C(CN2[C@@H]3COC[C@H]2C[C@@H](NC(C)=O)C3)NC(c2nccs2)=N[C@H]1c1ccc(F)cc1Br [Example 70]", "Selectivity index (CC50/EC50)": 7268}
{"COMPOUND": "COC(=O)C1=C(CN2[C@@H]3COC[C@H]2C[C@@H](NS(N)(=O)=O)C3)NC(c2nccs2)=N[C@H]1c1ccc(F)cc1Cl [Example 56]", "Selectivity index (CC50/EC50)": 9766}
{"COMPOUND": "COC(=O)C1=C(CN2[C@@H]3COC[C@H]2C[C@H](NS(N)(=O)=O)C3)NC(c2nccs2)=N[C@H]1c1ccc(F)cc1Cl [Example 63]", "Selectivity index (CC50/EC50)": 22367}
{"COMPOUND": "CCOC(=O)C1=C(CN2C3CCC2(C(=O)O)COC3)NC(c2nccs2)=N[C@H]1c1cccc(F)c1Cl (some centres unmarked) [Example 83]", "Selectivity index (CC50/EC50)": 7558}

Entry COC(=O)C1=C(CN2C3COCC2C(F)(F)c2[nH]ncc23)NC(c2nccs2)=N[C@H]1c1ccc(F)cc1Cl (some centres unmarked) [Example 107] — recorded Selectivity index (CC50/EC50) = 12495

Entry COC(=O)C1=C(CN2C3COCC2CC(NC(C)=O)C3)NC(c2nccs2)=N[C@H]1c1ccc(F)cc1Cl (some centres unmarked) [Example 35] — recorded Selectivity index (CC50/EC50) = 7813

Entry CCOC(=O)C1=C(CN2[C@@H]3COC[C@H]2C[C@H](CC(=O)O)C3)NC(c2nccs2)=N[C@H]1c1ccc(F)c(F)c1Br [Example 80] — recorded Selectivity index (CC50/EC50) = 22394
